These measurements were taken from patent US20260242419A1.

Let's look at some binders and their measured MRC5 IC50.
- Study target: Recombinant human IL-1β (BioLegend 579404) (human, UniProt P01584 117-269)
- Method description: cell-based or functional assay
Starred links: 1 amine or outer side, 2 acyl side, 3 side chain; linkers in the order of their positions; H or OH if unused. Non-standard residues stand in square brackets, D forms with d. Ala(piperidin-4-yl) = O=C([C@H](CC1CCN([*:3])CC1)N[*:1])[*:2]; Trp(βS-Me,4-F) = C[C@@H](c1c[nH]c2cccc(F)c12)[C@H](N)C(=O)O; Bip(4'-COOH) = N[C@@H](Cc1ccc(-c2ccc(C(=O)O)cc2)cc1)C(=O)O; Ala(1-bicyclo(1.1.1)pentyl) = N[C@@H](CC12CC(C1)C2)C(=O)O; dPro(4R-Bzl(4-F)) = O=C(O)[C@H]1C[C@@H](Cc2ccc(F)cc2)CN1; Ala(pyrimidin-5-yl) = N[C@@H](Cc1cncnc1)C(=O)O; Phe(4-COOH) = N[C@@H](Cc1ccc(C(=O)O)cc1)C(=O)O; Pro(cis-4-F) = O=C(O)[C@@H]1C[C@H](F)CN1; 4Pal = N[C@@H](Cc1ccncc1)C(=O)O; d(αMeS) = C[C@@](N)(CO)C(=O)O; αMeK = C[C@](N)(CCCCN)C(=O)O; Dab = NCC[C@H](N)C(=O)O; Aib = CC(C)(N)C(=O)O
Dear colleague, please return just the value in nM, with no unit written.

For reference, reported MRC5 IC50 for cyclo([Bip(4'-COOH)][Ala(1-bicyclo(1.1.1)pentyl)][Phe(4-COOH)]G[Pro(cis-4-F)][Trp(βS-Me,4-F)][Aib]SW[d(αMeS)][Ala(piperidin-4-yl)]Q[Dab]G[dPro(4R-Bzl(4-F))]) (ring closure inferred; not fully specified (bridges); printed as Bip4CO2H-AlaPent-Phe4COOH-G-Proc4F-SbMeW4F-Aib-S-W-daMeS-AlaPip4-Q-Dab-G-dProc4Bn4F, cyclic (macrolactam)) [SEQ ID NO: 172] stands at 0.016

More entries:
Documented MRC5 IC50 of cyclo([Bip(4'-COOH)][4Pal][Phe(4-COOH)]G[Pro(cis-4-F)][Trp(βS-Me,4-F)][Aib]VW[αMeK][Ala(pyrimidin-5-yl)]Q[Dab]G[dPro(4R-Bzl(4-F))]) (ring closure inferred; not fully specified (bridges); printed as Bip4CO2H-4Pal-Phe4COOH-G-Proc4F-SbMeW4F-Aib-V-W-aMeK-PyrimAla-Q-Dab-G-dProc4Bn4F) [SEQ ID NO: 135] : 0.035
